measurement_kind: melting point

Example cases with answers are listed next.
- compound: "C=CCn1c(Nc2cc(C(F)(F)F)ccc2C(F)(F)F)nc(C(F)(F)F)cc1=O"
  melting point: "116 to 118 °C"
- compound: "CNC(=O)c1ccc(C2=N[C@H]3CCCC[C@H]3c3cc(OC)c(OC)cc32)cc1 (racemic)"
  melting point: "209 to 211 °C"

Req: What does the data say about its melting point? Entry: CC(CO)Nc1cc(Oc2nn(C)c(C(F)(F)F)c2Cl)ccc1N (centres undefined)
Resp: 110 to 112 °C

Req: Field request: melting point | item: O=C(CS(=O)(=O)C(c1ccc(Cl)cc1)c1ccc(Cl)cc1)c1cccs1
Resp: 150 to 151 °C

Req: Sample CC(C)(C)c1ccc(OP2N(C(C)(C)C)P(Oc3ccc(C(C)(C)C)cc3C(C)(C)C)N2C(C)(C)C)c(C(C)(C)C)c1 (centres undefined) — what was its melting point?
Resp: 205 to 210 °C

Req: # get_value(readout='melting point', item= CCn1c(Nc2cc(C(F)(F)F)ccc2C(F)(F)F)nc(C(F)(F)F)c(Cl)c1=O )
Resp: 144 to 146 °C

Req: So what does the record say about melting point for COc1cc(C=C2SC(=S)N(c3ccc(O)cc3)C2=O)ccc1OC1OC(CO)C(O)C(O)C1NC(C)=O (centres undefined) ?
Resp: 234 to 236 °C

Req: // melting point lookup, key: CCCc1nc2c(N)nc(C)c(C)c2n1CCCCCS(C)(=O)=O
Resp: 145 to 146 °C

Req: Given the compound O=[N+]([O-])c1ccc(-c2cccs2)cc1-c1cccs1 , what is its reported melting point?
Resp: 111 to 112 °C
